Tested on: Lovo/DX
Assay: MTT cytotoxicity assay, multidrug-resistant subline Lovo/DX
Assay type: cell-based, human
Settings: Homo sapiens; Lovo/DX (resistant) cells; MTT assay; read-out: IC50 LOVO/DX

[
  {
    "structure_string": "COc1cccc2c1C(=O)c1c(O)c3c(c(O)c1C2=O)C[C@@](O)(C(=O)CO)C[C@@H]3O[C@H]1C[C@H](N)[C@H](O)[C@H](C)O1",
    "IC50": "66.6 µg/mL"
  },
  {
    "structure_string": "CN(C)CCNc1ccc2c3c(nn2CCN)-c2cnccc2C(=O)c13",
    "IC50": "5 µg/mL"
  },
  {
    "structure_string": "CN(C)CCn1nc2c3c(c(NCCN)ccc31)C(=O)c1ccncc1-2",
    "IC50": "22.4 µg/mL"
  },
  {
    "structure_string": "CN(C)CCNc1ccc2c3c(nn2CCN(C)C)-c2cnccc2C(=O)c13",
    "IC50": "0.9 µg/mL"
  }
]
